molecular target: KRAS G13D (Homo sapiens, UniProt P01116, G13D); construct: aa1-188 KRAS WT, HRAS WT, NRAS WT, or KRAS containing the containing the G12D, G13D or Q61H amino acid substitutions; assay: HTRF nucleotide exchange assay (NEA), KRAS G13D; format: biochemical; settings: recombinant human KRAS aa1-188 G13D, 2 nM; 60 min compound incubation, EDA-GTP-DY647P1
Sequence (P01116 1-188 isoform P01116-2 G13D): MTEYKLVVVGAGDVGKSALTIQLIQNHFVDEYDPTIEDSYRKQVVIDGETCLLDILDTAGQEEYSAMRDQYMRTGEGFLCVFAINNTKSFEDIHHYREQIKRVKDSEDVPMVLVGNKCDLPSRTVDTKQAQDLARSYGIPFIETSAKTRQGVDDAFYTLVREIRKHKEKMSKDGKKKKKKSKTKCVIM
pIC50: −log10 of the molar value.
QUANTITY_NAME: pIC50

Prompt: Note down pIC50 recorded for Cc1c(-c2cc(O)cc3ccccc23)ccc2c(N3CCSCC3)nc(OCC34CCCN3CCC4)nc12
Response: 5.00 to 7.00

----------
target: KRAS WT (Homo sapiens); construct: aa1-188 KRAS WT, HRAS WT, NRAS WT; experiment: HTRF nucleotide exchange assay (NEA), KRAS WT; conditions: recombinant human KRAS WT aa1-188, 2 nM; 60 min compound incubation, EDA-GTP-DY647P1
Each entry below carries its recorded IC50.

Reference set, count: 2
Oc1cc(-c2ccc3c(N4CCCOCC4)nc(OCC45CCCN4CCC5)nc3c2F)c2ccccc2c1 = 10 to 100 nM
C#Cc1c(F)ccc2cc(O)cc(-c3ccc4c(N5CCCOCC5)nc(OC[C@@]56CCCN5C[C@H](F)C6)nc4c3F)c12 (racemic) = < 10 nM

Prompt: Note down IC50 recorded for Cc1c(-c2cccc3sc(N)nc23)ccc2c(N3CCCOCC3)nc(OCC34CCCN3CCC4)nc12
Response: 100 to 10000 nM

----------
Each entry below carries its recorded IC50.
biological target: KRAS WT (Homo sapiens, UniProt P01116); construct: aa1-188 KRAS WT, HRAS WT, NRAS WT; test: HTRF nucleotide exchange assay (NEA), KRAS WT; settings: recombinant human KRAS WT aa1-188, 2 nM; 60 min compound incubation, EDA-GTP-DY647P1
Sequence (P01116 1-188 isoform P01116-2): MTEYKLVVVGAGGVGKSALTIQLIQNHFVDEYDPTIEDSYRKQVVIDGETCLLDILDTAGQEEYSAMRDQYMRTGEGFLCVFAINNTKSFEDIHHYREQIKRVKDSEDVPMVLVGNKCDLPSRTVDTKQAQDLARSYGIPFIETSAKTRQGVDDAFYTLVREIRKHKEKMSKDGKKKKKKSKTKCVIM

Reference set, count: 3
Cc1c(-c2cccc3sc(N)c(C#N)c23)ccc2c(N3CCCOCC3)nc(OCC34CCCN3CCC4)nc12 = 10 to 100 nM
COc1ccc(Cl)cc1-c1ccc2c(N3CCCOCC3)nc(OCC34CCCN3CCC4)nc2c1C = 100 to 10000 nM
C#Cc1c(F)ccc2cc(O)cc(-c3ccc4c(N5CCCOCC5)nc(OC[C@@]56CCCN5C[C@H](F)C6)nc4c3C)c12 (racemic) = < 10 nM

Prompt: Note down IC50 recorded for N#Cc1cc2c(N3CCCOCC3)nc(OCC34CCCN3CCC4)nc2c(F)c1-c1cc(O)cc2ccccc12
Response: 10 to 100 nM

----------
molecular target: KRAS WT (Homo sapiens, UniProt P01116); construct: aa1-188 KRAS WT, HRAS WT, NRAS WT; experiment: HTRF nucleotide exchange assay (NEA), KRAS WT; conditions: recombinant human KRAS WT aa1-188, 2 nM; 60 min compound incubation, EDA-GTP-DY647P1
pIC50: −log10 of the molar value.
QUANTITY_NAME: pIC50

Reference set, count: 3
Cc1c(-c2cc(O)cc3ccccc23)ccc2c(N3CCCOCC3)nc(OCC34CCCN3CCC4)nc12 = 5.00 to 7.00
Cc1c(-c2cc(O)cc3ccccc23)ccc2c(N3CCSCC3)nc(OCC34CCCN3CCC4)nc12 = 5.00 to 7.00
Cc1c(-c2cc(O)cc3ccccc23)ccc2c(N3CC4CCC(C3)N4)nc(OCC34CCCN3CCC4)nc12 = 5.00 to 7.00

Attention now turns to another entry.
Prompt: Note down pIC50 recorded for C#Cc1c(F)ccc2cc(O)cc(-c3ccc4c(N5CCCNC(=O)C5)nc(OC[C@@]56CCCN5C[C@H](F)C6)nc4c3C)c12 (racemic)
Response: > 8.00

----------
Each entry below carries its recorded IC50.
target: KRAS G12C (Homo sapiens, UniProt P01116, G12C); construct: 4 nM KRAS; aa1-188 containing the G12V, G12C, G12A or G12S amino acid substitution; test: HTRF nucleotide exchange assay (NEA), KRAS G12C; conditions: recombinant human KRAS aa1-188 G12C, 4 nM; 60 min compound incubation, EDA-GTP-DY647P1
Sequence (P01116 1-188 isoform P01116-2 G12C): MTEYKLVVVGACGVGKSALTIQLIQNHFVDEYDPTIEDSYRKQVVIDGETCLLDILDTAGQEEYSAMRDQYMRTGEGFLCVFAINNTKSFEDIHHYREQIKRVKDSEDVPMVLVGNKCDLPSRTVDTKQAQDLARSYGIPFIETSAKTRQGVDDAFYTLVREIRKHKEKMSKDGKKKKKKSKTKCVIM

C#Cc1c(F)ccc2cc(O)cc(-c3ccc4c(N5CCCNC(=O)C5)nc(OC[C@@]56CCCN5C[C@H](F)C6)nc4c3C)c12 (racemic) = < 10 nM
Oc1cc(-c2ccc3c(N4CCCOCC4)nc(OCC45CCCN4CCC5)nc3c2F)c2ccccc2c1 = 10 to 100 nM
Cc1c(-c2cc(O)cc3ccccc23)ccc2c(N3CCSCC3)nc(OCC34CCCN3CCC4)nc12 = 100 to 10000 nM
Cc1c(-c2cccc3sc(N)c(C#N)c23)ccc2c(N3CCCOCC3)nc(OCC34CCCN3CCC4)nc12 = < 10 nM
C#Cc1c(F)ccc2cc(O)cc(-c3ccc4c(N5CCCOCC5)nc(OC[C@@]56CCCN5C[C@H](F)C6)nc4c3F)c12 (racemic) = < 10 nM

Prompt: Note down IC50 recorded for Cc1c(-c2cc(O)cc3ccccc23)ccc2c(N3CCCOCC3)nc(OCC34CCCN3CCC4)nc12
Response: 100 to 10000 nM

Prompt: Note down IC50 recorded for N#Cc1cc2c(N3CCCOCC3)nc(OCC34CCCN3CCC4)nc2c(F)c1-c1cc(O)cc2ccccc12
Response: 10 to 100 nM

Prompt: Note down IC50 recorded for C#Cc1c(F)ccc2cc(O)cc(-c3ccc4c(N5CCCOCC5)nc(OC[C@@]56CCCN5C[C@H](F)C6)nc4c3C)c12 (racemic)
Response: < 10 nM

Prompt: Note down IC50 recorded for Cc1c(-c2cc(O)cc3ccccc23)ccc2c(N3CC4CCC(C3)N4)nc(OCC34CCCN3CCC4)nc12
Response: 100 to 10000 nM

----------
biological target: KRAS Q61H (Homo sapiens, UniProt P01116, Q61H); construct: aa1-188 KRAS WT, HRAS WT, NRAS WT, or KRAS containing the containing the G12D, G13D or Q61H amino acid substitutions; test: HTRF nucleotide exchange assay (NEA), KRAS Q61H; conditions: recombinant human KRAS aa1-188 Q61H, 2 nM; 60 min compound incubation, EDA-GTP-DY647P1
Sequence (P01116 1-188 isoform P01116-2 Q61H): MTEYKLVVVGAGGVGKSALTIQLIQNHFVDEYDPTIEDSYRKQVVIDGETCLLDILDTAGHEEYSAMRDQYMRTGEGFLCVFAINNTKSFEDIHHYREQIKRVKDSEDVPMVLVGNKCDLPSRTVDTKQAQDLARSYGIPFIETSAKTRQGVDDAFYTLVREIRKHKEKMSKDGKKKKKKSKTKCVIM
pIC50: −log10 of the molar value.
Each entry below carries its recorded pIC50.

Reference set, count: 4
C#Cc1c(F)ccc2cc(O)cc(-c3ccc4c(N5CCCNC(=O)C5)nc(OC[C@@]56CCCN5C[C@H](F)C6)nc4c3C)c12 (racemic) = 7.00 to 8.00
C#Cc1c(F)ccc2cc(O)cc(-c3ccc4c(N5CCCOCC5)nc(OC[C@@]56CCCN5C[C@H](F)C6)nc4c3C)c12 (racemic) = > 8.00
Cc1c(-c2cc(O)cc3ccccc23)ccc2c(N3CCCOCC3)nc(OCC34CCCN3CCC4)nc12 = 5.00 to 7.00
Cc1c(-c2cccc3sc(N)c(C#N)c23)ccc2c(N3CCCOCC3)nc(OCC34CCCN3CCC4)nc12 = 7.00 to 8.00

Prompt: Note down pIC50 recorded for Oc1cc(-c2ccc3c(N4CCCOCC4)nc(OCC45CCCN4CCC5)nc3c2F)c2ccccc2c1
Response: 5.00 to 7.00

----------
Each entry below carries its recorded IC50.
Target: KRAS G12D (Homo sapiens, UniProt P01116, G12D)
Construct: aa1-188 KRAS WT, HRAS WT, NRAS WT, or KRAS containing the containing the G12D, G13D or Q61H amino acid substitutions
Sequence (P01116 1-188 isoform P01116-2 G12D): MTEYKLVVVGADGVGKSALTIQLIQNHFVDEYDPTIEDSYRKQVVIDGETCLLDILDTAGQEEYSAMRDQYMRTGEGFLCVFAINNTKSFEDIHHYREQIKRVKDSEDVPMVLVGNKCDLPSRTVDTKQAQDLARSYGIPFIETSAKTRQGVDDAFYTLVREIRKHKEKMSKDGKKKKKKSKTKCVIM
Assay: HTRF nucleotide exchange assay (NEA), KRAS G12D
Settings: recombinant human KRAS aa1-188 G12D, 2 nM; 60 min compound incubation, EDA-GTP-DY647P1
Experimental: HTRF Nucleotide Exchange Assay Method The capacity of compounds to bind KRAS G12D, other KRAS mutants and wildtype RAS isoforms was quantified using a HTRF nucleotide exchange assay. […] Following 30-minute incubation at room temperature, time-resolved fluorescence was measured on a PerkinElmer Envision plate reader. […] Data was analysed using a four-parameter logistic model to calculate IC50 values, with at least two independent replicates were performed for each compound.

Reference set, count: 4
C#Cc1c(F)ccc2cc(O)cc(-c3ccc4c(N5CCCOCC5)nc(OC[C@@]56CCCN5C[C@H](F)C6)nc4c3C)c12 (racemic) [Example 6] = < 10 nM
Cc1c(-c2cccc3sc(N)c(C#N)c23)ccc2c(N3CCCOCC3)nc(OCC34CCCN3CCC4)nc12 [Example 22] = 10 to 100 nM
N#Cc1cc2c(N3CCCOCC3)nc(OCC34CCCN3CCC4)nc2c(F)c1-c1cc(O)cc2ccccc12 [Example 27] = 10 to 100 nM
Cc1c(-c2cccc3sc(N)nc23)ccc2c(N3CCCOCC3)nc(OCC34CCCN3CCC4)nc12 [Example 13] = 100 to 10000 nM

Prompt: Note down IC50 recorded for C#Cc1c(F)ccc2cc(O)cc(-c3ccc4c(N5CCCNC(=O)C5)nc(OC[C@@]56CCCN5C[C@H](F)C6)nc4c3C)c12 (racemic) [Example 24]
Response: < 10 nM

Prompt: Note down IC50 recorded for Cc1c(-c2cc(O)cc3ccccc23)ccc2c(N3CC4CCC(C3)N4)nc(OCC34CCCN3CCC4)nc12 [Example 1]
Response: < 10 nM

Prompt: Note down IC50 recorded for C#Cc1c(F)ccc2cc(O)cc(-c3ccc4c(N5CCCOCC5)nc(OC[C@@]56CCCN5C[C@H](F)C6)nc4c3F)c12 (racemic) [Example 26]
Response: < 10 nM

Prompt: Note down IC50 recorded for Oc1cc(-c2ccc3c(N4CCCOCC4)nc(OCC45CCCN4CCC5)nc3c2F)c2ccccc2c1 [Example 25]
Response: 10 to 100 nM

Prompt: Note down IC50 recorded for Cc1c(-c2cc(O)cc3ccccc23)ccc2c(N3CCCOCC3)nc(OCC34CCCN3CCC4)nc12 [Example 2]
Response: 100 to 10000 nM

Prompt: Note down IC50 recorded for Cc1c(-c2cc(O)cc3ccccc23)ccc2c(N3CCSCC3)nc(OCC34CCCN3CCC4)nc12 [Example 3]
Response: 100 to 10000 nM
